test system: CCRF-CEM leukemia; experiment: NCI-60 one-dose screen, 48 h; details: 10 µM unless noted
Compounds without any hit were thinned out: in the full panel of roughly 83,000, 20% have a hit. Calls of active or inactive are those of the source. How the source made its calls: active means growth percent below 10; inactive means the rest.
Would you mind answering with one of these outcomes? active, inactive

For orientation, consider the following solved cases.
stdin: For `C=C(C)[C@@H]1CC[C@]2(C(=O)NCCCCCCN(CCCN)CCCN)CC[C@]3(C)[C@H](CC[C@@H]4[C@@]5(C)CC[C@H](OCCCN)C(C)(C)[C@@H]5CC[C@]43C)[C@@H]12` , what call appears in the results of this test?
stdout: inactive

stdin: Entry to check: CC1(C)OC2[C@@H](CNC(=O)NC(=O)NC(=O)CI)O[C@@H](n3cnc4c(NC(=O)Nc5ccccc5)ncnc43)[C@H]2O1 (some centres not stated)
stdout: active

stdin: Entry to check: `COc1cc(-c2nc(SCCC(C)C)nc(Nc3ccccc3)c2C#N)cc(OC)c1OC`
stdout: inactive

stdin: Entry to check: `Cc1ccc(NC(=O)N[C@@H](Cc2cc(F)cc(F)c2)C(=O)N[C@@H]2C(=O)N3CCC[C@H]3C(=O)N3CCCC[C@H]3C(=O)N[C@@H](C)C(=O)N3C[C@H](C)C[C@H]3C(=O)O[C@H]2C)cc1`
stdout: inactive

***
stdin: For `O=S(=O)(/N=c1/n(-c2ccccc2)nc2n1CCN2C1=NCCN1)c1ccc(-c2ccccc2)cc1` , what call appears in the results of this test?
stdout: inactive

stdin: Entry to check: CC1(C(=O)O)CCC(N)(C(=O)O)C1(C)C (configuration not stated)
stdout: inactive

stdin: Entry to check: `CCCCCCCCCCCCNC(=S)N/N=C/c1ccccc1O`
stdout: inactive

stdin: Entry to check: `C=C(C)[C@@H]1CC[C@]2(C)[C@H](C(=O)C=C3[C@@H]4C[C@](C)(C(=O)N5CCN(C)CC5)CC[C@]4(C)CC[C@]32C)[C@@]1(C)CCC#N`
stdout: active

stdin: Entry to check: CCCCCCCCN(CCCCCCCC)CC(O)c1ccc(Cl)c(C)c1Cl (configuration not stated)
stdout: inactive

stdin: Entry to check: `N#C/C(C(=O)c1ccccc1)=C1/C(=O)Nc2ccccc21`
stdout: inactive

stdin: Entry to check: `Cc1ccc(S(=O)(=O)Oc2ccc([N+](=O)[O-])cc2[N+](=O)[O-])cc1`
stdout: inactive

stdin: Entry to check: Cc1ccc2c(c1)C(C)Cc1c(Cl)ncnc1N2C (configuration not stated)
stdout: inactive
